# measured_on: EGFR exon 20 FQEA Ins A763_V764 (Ba/F3 cells) (Homo sapiens, UniProt P00533, INS763FQEA)
# Sequence (P00533 with tags, fused parts or gaps INS763FQEA): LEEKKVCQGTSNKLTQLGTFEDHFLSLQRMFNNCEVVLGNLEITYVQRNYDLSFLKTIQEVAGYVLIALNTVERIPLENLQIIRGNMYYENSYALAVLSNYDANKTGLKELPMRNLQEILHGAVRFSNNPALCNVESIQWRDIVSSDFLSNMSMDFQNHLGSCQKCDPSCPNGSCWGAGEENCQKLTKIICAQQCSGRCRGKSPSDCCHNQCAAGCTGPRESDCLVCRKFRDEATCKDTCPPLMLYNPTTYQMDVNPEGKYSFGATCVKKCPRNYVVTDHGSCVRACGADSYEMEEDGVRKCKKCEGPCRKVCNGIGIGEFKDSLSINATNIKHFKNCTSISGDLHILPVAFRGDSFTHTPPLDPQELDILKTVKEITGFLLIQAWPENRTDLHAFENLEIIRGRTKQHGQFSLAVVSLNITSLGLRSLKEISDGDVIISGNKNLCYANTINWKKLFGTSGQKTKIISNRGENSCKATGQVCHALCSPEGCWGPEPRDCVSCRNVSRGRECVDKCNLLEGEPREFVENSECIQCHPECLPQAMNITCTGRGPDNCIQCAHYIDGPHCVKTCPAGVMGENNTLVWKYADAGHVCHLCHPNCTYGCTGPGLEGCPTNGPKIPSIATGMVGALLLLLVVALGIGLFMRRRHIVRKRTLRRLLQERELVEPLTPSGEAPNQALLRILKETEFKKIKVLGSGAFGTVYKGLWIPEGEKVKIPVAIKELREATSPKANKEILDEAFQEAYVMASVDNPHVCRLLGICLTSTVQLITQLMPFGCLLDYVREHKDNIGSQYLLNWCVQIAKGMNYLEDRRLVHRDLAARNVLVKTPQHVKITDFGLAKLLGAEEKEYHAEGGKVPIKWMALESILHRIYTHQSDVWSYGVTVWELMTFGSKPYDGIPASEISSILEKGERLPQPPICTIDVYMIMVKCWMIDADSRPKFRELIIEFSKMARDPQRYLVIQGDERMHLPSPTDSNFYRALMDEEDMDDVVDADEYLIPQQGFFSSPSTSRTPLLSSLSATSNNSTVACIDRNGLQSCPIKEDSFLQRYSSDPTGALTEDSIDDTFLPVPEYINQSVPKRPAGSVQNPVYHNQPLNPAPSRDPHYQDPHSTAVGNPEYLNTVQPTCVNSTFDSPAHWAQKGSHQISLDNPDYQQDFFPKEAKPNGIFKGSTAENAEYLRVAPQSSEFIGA
# assay_text: Inhibitor activity on EGFR-dependent cell growth (CellTiter-Glo, 72 h), Ba/F3 EGFR exon 20 FQEA Ins
# recorded_conditions: read-out: BaF3 FQEA IC50
IC50 overview

The following molecules have reported results that may help.
>  <molecule>
COc1ccc2nccc(-c3[nH]c4c(c3Nc3cccc(F)c3C)C(=O)NCC4)c2n1

>  <measured_on>
EGFR exon 20 FQEA Ins A763_V764 (Ba/F3 cells) (Homo sapiens, UniProt P00533, INS763FQEA)

>  <IC50>
< 0.1 µM

$$$$
>  <molecule>
COc1c(Cl)cccc1Nc1c(-c2ccnc3ccc(OC(C)C)nc23)[nH]c2c1C(=O)NCC2

>  <measured_on>
EGFR exon 20 FQEA Ins A763_V764 (Ba/F3 cells) (Homo sapiens, UniProt P00533, INS763FQEA)

>  <IC50>
< 0.1 µM

$$$$
>  <molecule>
COc1c(Cl)cccc1Nc1c(-c2nc(N)ncc2C#N)[nH]c2c1C(=O)NCC2

>  <measured_on>
EGFR exon 20 FQEA Ins A763_V764 (Ba/F3 cells) (Homo sapiens, UniProt P00533, INS763FQEA)

>  <IC50>
> 1 µM

$$$$
>  <molecule>
COc1ncc2nccc(-c3[nH]c4c(c3Nc3cccc(Cl)c3)C(=O)NCC4)c2n1

>  <measured_on>
EGFR exon 20 FQEA Ins A763_V764 (Ba/F3 cells) (Homo sapiens, UniProt P00533, INS763FQEA)

>  <IC50>
< 0.1 µM

$$$$
>  <molecule>
COCC[C@@H]1CNC(=O)c2c(Nc3cccc(Cl)c3OC)c(-c3ccncn3)n(C)c21 (single isomer, unassigned)

>  <measured_on>
EGFR exon 20 FQEA Ins A763_V764 (Ba/F3 cells) (Homo sapiens, UniProt P00533, INS763FQEA)

>  <IC50>
> 1 µM

$$$$
>  <molecule>
COc1c(Cl)cccc1Nc1c(-c2ccnc(NC[C@@H]3COCCO3)n2)[nH]c2c1C(=O)NCC2

>  <measured_on>
EGFR exon 20 FQEA Ins A763_V764 (Ba/F3 cells) (Homo sapiens, UniProt P00533, INS763FQEA)

>  <IC50>
> 1 µM

$$$$
>  <molecule>
COc1c(F)cccc1Nc1c(-c2ccncc2F)[nH]c2c1C(=O)NCC2C[C@@H]1COCCO1 (single isomer, unassigned)

>  <measured_on>
EGFR exon 20 FQEA Ins A763_V764 (Ba/F3 cells) (Homo sapiens, UniProt P00533, INS763FQEA)

>  <IC50>
< 0.1 µM

$$$$

Please look at the following molecule next.
Exercise: Any idea what IC50 was measured for "COc1ncc2nccc(-c3[nH]c4c(c3Nc3cccc(Cl)c3OC(F)(F)F)C(=O)NCC4)c2n1" ?
Solution: > 1 µM
